Molecular target: CGRP1 receptor (CRLR/RAMP1 complex) of human neuroblastoma SK-N-MC cells (human, UniProt Q16602 23-461; O60894 27-148)
Sequence (Q16602 23-461, chain 1 of 2): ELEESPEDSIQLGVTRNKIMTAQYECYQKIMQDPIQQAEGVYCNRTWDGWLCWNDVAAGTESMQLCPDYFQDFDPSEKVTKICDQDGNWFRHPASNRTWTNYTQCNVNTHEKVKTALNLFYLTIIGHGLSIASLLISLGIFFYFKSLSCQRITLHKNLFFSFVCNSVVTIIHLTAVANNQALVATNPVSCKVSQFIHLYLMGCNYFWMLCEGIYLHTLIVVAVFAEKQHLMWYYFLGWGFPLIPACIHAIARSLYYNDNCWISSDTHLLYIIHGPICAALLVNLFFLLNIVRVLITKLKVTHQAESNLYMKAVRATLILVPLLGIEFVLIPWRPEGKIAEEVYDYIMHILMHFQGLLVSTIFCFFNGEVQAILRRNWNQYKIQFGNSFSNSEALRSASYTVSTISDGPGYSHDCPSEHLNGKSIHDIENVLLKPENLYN
Sequence (O60894 27-148, chain 2 of 2): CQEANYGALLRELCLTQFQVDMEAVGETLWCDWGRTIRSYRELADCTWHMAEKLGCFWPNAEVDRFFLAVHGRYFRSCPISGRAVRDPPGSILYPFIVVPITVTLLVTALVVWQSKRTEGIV
Assay: cell-based or functional assay
Bridge positions count the residues as written; N and C are the ends. Square brackets hold non-standard residues; d marks the D form. hArg = N=C(N)NCCCC[C@H](N)C(=O)O; Cit = NC(=O)NCCC[C@H](N)C(=O)O
// reported Peptide IC50 for each item listed
Please provide the amount together with its unit, number first.

The cases that follow already have their Peptide IC50 on record.
| BINDER | Peptide IC50 |
| --- | --- |
| Ac-WVEHRLKGLLS[Cit]SGGVV[hArg]KNFVPTDVGPFAF-NH2 (lactam 3-7) [SEQ ID NO 906] | 1.15 nM |
| Ac-WVEHRLKGLLSQSGGVV[hArg]KNFVPTDVGPFAF-NH2 (lactam 3-7) [SEQ ID NO 904] | 2.03 nM |

Now for a further binder.
[in] So what's the measured Peptide IC50 for this one? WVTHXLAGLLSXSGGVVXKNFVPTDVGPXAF (Ac-WVTH[Cit]LAGLLS[Cit]SGGVV[hArg]KNFVPTDVGP[Bip]AF-NH2) [SEQ ID NO 929]
[out] 1.76 nM
